- TARGET: EED (1-441)-His protein (Homo sapiens, UniProt O75530)
- Construct: 30 nM EED (1-441)-His protein
- Sequence (O75530 whole entry): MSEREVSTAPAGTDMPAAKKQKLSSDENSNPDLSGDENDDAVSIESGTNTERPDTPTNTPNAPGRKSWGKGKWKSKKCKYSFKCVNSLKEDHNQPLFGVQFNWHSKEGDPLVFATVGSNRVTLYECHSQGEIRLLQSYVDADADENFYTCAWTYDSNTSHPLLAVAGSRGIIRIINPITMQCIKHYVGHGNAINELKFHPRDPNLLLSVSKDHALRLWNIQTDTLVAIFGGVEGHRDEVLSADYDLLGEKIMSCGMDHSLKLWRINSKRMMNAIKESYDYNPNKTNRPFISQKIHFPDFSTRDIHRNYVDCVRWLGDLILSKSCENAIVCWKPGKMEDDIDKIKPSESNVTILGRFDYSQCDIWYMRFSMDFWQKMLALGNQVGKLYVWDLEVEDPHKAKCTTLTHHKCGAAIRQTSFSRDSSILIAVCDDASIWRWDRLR
- ASSAY: EED-H3K27Me3 peptide competition binding assay by AlphaScreen
- DETAILS: read-out: (a) IC50, EED Alphascreen binding Qualified
pIC50: −log10 of the molar value.
MEASURED ATTRIBUTE: pIC50

These recorded examples may help you get a feel for the data.
**Q:** Return pIC50 for the following molecule: `COc1ccccc1CNc1ccc(-c2ccc(S(=O)(=O)N3CCCC3)cc2)c2nncn12`
**A:** 7.78

**Q:** Return pIC50 for the following molecule: `COc1ccccc1CNc1ccc(-c2cc(F)c(CN3CCCCC3)c(F)c2)c2nncn12`
**A:** 7.13

[P] COc1cccc(F)c1CNc1ccc(-c2c(C)nn(CCO)c2C)c2nncn12
[Q] COc1ccccc1CNc1ccc(-c2cnc(N3CCN(C)CC3)c(C)c2)c2nncn12
[R] COc1cccc(F)c1CNc1ccc(-c2cnn(C)c2)c2nncn12
**Q:** Arrange items by their pIC50 values in increasing order. Write out the labels following the order that was asked for.
**A:** R, Q, P
